I'd be grateful if you could share measured log10 of IC50 for these entries.
# TGT: human MDM4 protein (amino acids 2-185) (Homo sapiens)
# Construct: human MDM4 protein (amino acids 2-185); made in house
# Sequence (O15151 2-185): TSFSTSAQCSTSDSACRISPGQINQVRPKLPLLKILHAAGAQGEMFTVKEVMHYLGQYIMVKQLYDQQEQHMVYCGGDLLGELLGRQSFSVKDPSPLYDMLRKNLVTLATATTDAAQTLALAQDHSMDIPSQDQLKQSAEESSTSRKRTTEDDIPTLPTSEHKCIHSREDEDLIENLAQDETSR
# ASSAY OVERVIEW: p53-MDM4 TR-FRET assay (p53-MDM4 Assay 1)
# Type: binding
# CONDITION DETAILS: 2.5 nM MDM4-biotinylated, 10 nM Cy5-p53 peptide; read-out: IC50 (μM) of p53-Hdm4 inhibition (TR-FRET) Assay 1
// units: µM (pre-log); metric: IC50; scale: log10

Which log10 of IC50 reading was recorded for the molecule COc1cc2c(cc1OC(C)C)[C@H](c1ccc(Cl)cc1)N(c1ccc(C3(O)CN(C(=O)OC(C)(C)C)C3)cc1)C(=O)C2 ?
1.42

Next record, please: COc1cc2c(cc1OC(C)C)[C@H](c1ccc(Cl)cc1)N(c1ccc(C(C)(O)C3CC4CCC(C3)N4C=O)cc1)C(=O)C2 (stereo partly drawn)
0.41

Next record, please: COc1cc2c(cc1OC(C)C)[C@H](c1ccc(Cl)cc1)N(c1ccc([C@](C)(O)C3CC4CCC(C3)S4(=O)=O)cc1)C(=O)C2 (stereo partly drawn)
1.62

Next record, please: COc1cc2c(cc1OC(C)C)[C@H](c1ccc(Cl)cc1)N(c1ccc(C(C)(O)C3CCOCC3)c(F)c1)C(=O)C2 (mixture of isomers)
0.17

Next record, please: COC(=O)N1CCC(C(C)(O)c2ccc(N3C(=O)Cc4cc(OC)c(OC(C)C)cc4[C@@H]3c3ccc(Cl)cc3)cc2)CC1 (stereo partly drawn)
0.28

Next record, please: CNC(=O)N1CC(O)(c2ccc(N3C(=O)Cc4cc(OC)c(OC(C)C)cc4[C@@H]3c3ccc(Cl)cc3)cc2)C1
1.95

###

# TGT: human MDM2 protein (amino acids 2-188) (Homo sapiens, UniProt Q00987)
# Construct: human MDM2 protein (amino acids 2-188); made in house
# Sequence (Q00987 2-188): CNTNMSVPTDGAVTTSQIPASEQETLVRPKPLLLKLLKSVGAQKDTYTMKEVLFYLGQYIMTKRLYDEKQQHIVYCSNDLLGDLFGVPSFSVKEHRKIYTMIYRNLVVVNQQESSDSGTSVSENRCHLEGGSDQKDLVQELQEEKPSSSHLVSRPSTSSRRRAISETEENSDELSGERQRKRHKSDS
# ASSAY OVERVIEW: p53-MDM2 TR-FRET assay (p53-MDM2 Assay 1)
# Type: binding
# CONDITION DETAILS: 1.25 nM MDM2-biotinylated, 10 nM Cy5-p53 peptide; read-out: IC50 (μM) of p53-Hdm2 inhibition (TR-FRET) Assay 1
I'd be grateful if you could share measured IC50 for these entries.
Give just the numeric value; µM need not be written.

Which IC50 reading was recorded for the molecule COc1cc2c(cc1OC(C)C)[C@H](c1ccc(Cl)cc1)N(c1ccc(C(C)(O)C3CC4CCC(C3)N4C)cc1)C(=O)C2 (stereo partly shown) [Example 105] ?
0.0043

Next record, please: CCN1CC(C(C)(O)c2ccc(N3C(=O)Cc4cc(OC)c(OC(C)C)cc4[C@@H]3c3ccc(Cl)cc3)cc2)C1 (stereo partly shown) [Example 71]
0.026

Next record, please: COc1cc2c(cc1OC(C)C)[C@H](c1ccc(Cl)cc1)N(c1ccc(C(C)(O)C3CCN(C(=O)C4CC4)CC3)cc1)C(=O)C2 (stereo partly shown) [Example 80]
0.0052

Next record, please: COc1cc2c(cc1OC(C)C)[C@H](c1ccc(Cl)cc1)N(c1ccc(C(C)(O)C3CN(CC(F)(F)F)C3)cc1)C(=O)C2 (stereo partly shown) [Example 74]
0.0179

Next record, please: COc1cc2c(cc1OC(C)C)[C@H](c1ccc(Cl)cc1)N(c1ccc(C(C)(O)C3CCN(C4COC4)CC3)cc1)C(=O)C2 (stereo partly shown) [Example 96]
0.0021

Next record, please: CNC(=O)N1CC(O)(c2ccc(N3C(=O)Cc4cc(OC)c(OC(C)C)cc4[C@@H]3c3ccc(Cl)cc3)cc2)C1 [Example 60]
0.186

Next record, please: COc1cc2c(cc1OC(C)C)[C@H](c1ccc(Cl)cc1)N(c1ccc(C(C)(O)c3cccnc3)cn1)C(=O)C2 (stereo partly shown) [Example 15]
0.0404

Next record, please: COc1cc2c(cc1OC(C)C)[C@H](c1ccc(Cl)cc1)N(c1ccc(C(C)(O)C3CC4CCC(C3)N4C(C)=O)cc1)C(=O)C2 (stereo partly shown) [Example 104]
0.0132

Next record, please: COc1cc2c(cc1OC(C)C)[C@H](c1ccc(Cl)cc1)N(c1ccc(C(C)(O)C3CC4CCCC(C3)N4C=O)cc1)C(=O)C2 (stereo partly shown) [Example 117]
0.0028

Next record, please: COc1ccc(C(C)(O)c2ccc(N3C(=O)Cc4cc(OC)c(OC(C)C)cc4[C@@H]3c3ccc(Cl)cc3)cc2)cn1 (stereo partly shown) [Example 23]
0.0159

Next record, please: COc1cc2c(cc1OC(C)C)[C@H](c1ccc(Cl)cc1)N(c1ccc(C(C)(O)C3CCOCC3)cn1)C(=O)C2 (stereo partly shown) [Example 37]
0.0117

Next record, please: COc1cc2c(cc1OC(C)C)[C@H](c1ccc(Cl)cc1)N(c1ccc([C@](C)(O)C34CCC(CC3)O4)cc1)C(=O)C2 (single isomer, unassigned) [Example 137]
0.145

Next record, please: COc1cc2c(cc1OC(C)C)[C@H](c1ccc(Cl)cc1)N(c1ccc(C(C)(O)C3CNC3)cc1)C(=O)C2 (stereo partly shown) [Example 65]
0.0423
